target: OXA-58 β-lactamase (Acinetobacter baumannii); test: β-Lactamase steady-state kinetic analysis, OXA-58
Sequence (Q2TR58 22-280): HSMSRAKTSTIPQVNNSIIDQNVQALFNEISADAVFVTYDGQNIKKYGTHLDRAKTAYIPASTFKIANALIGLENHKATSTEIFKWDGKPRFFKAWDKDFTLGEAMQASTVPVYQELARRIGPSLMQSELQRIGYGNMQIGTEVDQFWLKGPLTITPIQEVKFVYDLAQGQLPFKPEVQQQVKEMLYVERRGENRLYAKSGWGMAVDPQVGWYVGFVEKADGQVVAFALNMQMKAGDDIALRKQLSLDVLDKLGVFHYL
property_measured: Kd
Put down the number, then write its unit next to it.

Incoming: Identify Kd associated with the compound CC1=C[C@@H]2CN(C(=O)N2OS(=O)(=O)O)[C@@H]1C(N)=O
Outgoing: 1 nM

====

biological target: ADC-7 β-lactamase (Acinetobacter baumannii, UniProt Q6DRA1); assay: β-Lactamase steady-state kinetic analysis, ADC-7
property_measured: pKd
When answering, recall that pKd equals minus log10 of the concentration in mol/L, and write that number alone.

Incoming: Identify pKd associated with the molecule CC1=C[C@@H]2CN(C(=O)N2OS(=O)(=O)O)[C@@H]1C(N)=O
Outgoing: 9.00

====

molecular target: ADC-7 β-lactamase (Acinetobacter baumannii, UniProt Q6DRA1); experiment: β-Lactamase steady-state kinetic analysis, ADC-7
property_measured: pKi
When answering, recall that pKi equals minus log10 of the concentration in mol/L, and write that number alone.

Incoming: Identify pKi associated with the compound CC1=C[C@@H]2CN(C(=O)N2OS(=O)(=O)O)[C@@H]1C(N)=O
Outgoing: 6.96

====

molecular target: OXA-66 β-lactamase (Acinetobacter baumannii, UniProt Q58XD2); test: β-Lactamase steady-state kinetic analysis, OXA-66
Sequence (Q58XD2 entry or part of it): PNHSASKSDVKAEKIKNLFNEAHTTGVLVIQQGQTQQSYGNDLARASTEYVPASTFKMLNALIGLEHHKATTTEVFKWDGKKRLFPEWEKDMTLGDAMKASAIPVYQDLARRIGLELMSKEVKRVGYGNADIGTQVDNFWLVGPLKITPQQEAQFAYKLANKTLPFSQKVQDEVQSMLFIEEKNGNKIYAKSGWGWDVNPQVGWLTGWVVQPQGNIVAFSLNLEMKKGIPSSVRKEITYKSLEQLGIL
property_measured: Ki (µM)
The response must be a number in µM with no trailing unit.

Incoming: Identify Ki associated with the molecule CC1=C[C@@H]2CN(C(=O)N2OS(=O)(=O)O)[C@@H]1C(N)=O
Outgoing: 43

Values were extracted from paper PMC6414696.
